- Target desc: rat SST-R1 (Rattus norvegicus, UniProt P28646)
- Sequence (P28646 whole entry): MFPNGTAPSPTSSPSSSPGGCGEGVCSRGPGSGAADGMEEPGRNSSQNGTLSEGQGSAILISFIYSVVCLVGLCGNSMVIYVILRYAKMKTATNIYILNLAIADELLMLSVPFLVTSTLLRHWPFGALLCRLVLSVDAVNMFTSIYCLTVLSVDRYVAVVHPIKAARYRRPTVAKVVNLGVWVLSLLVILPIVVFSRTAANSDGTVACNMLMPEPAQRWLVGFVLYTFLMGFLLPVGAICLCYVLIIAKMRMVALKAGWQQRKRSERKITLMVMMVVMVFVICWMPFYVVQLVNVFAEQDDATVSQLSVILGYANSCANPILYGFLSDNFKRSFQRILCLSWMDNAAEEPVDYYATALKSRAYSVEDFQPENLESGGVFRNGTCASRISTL
- Method notes: Subtype selectivity binding, rat SST-R1
- Details: rat SST-R1; read-out: Selectivity: IC50, nM, rat SST-R-1
Measurement type: IC50 (nM)
Number only, in nM; omit the unit.

Sample answers from the record:
Substance	Measurement type	Measured value
ReO-MA-Dpr(Gly)-Gly-Dab*-Phe-Trp-(D)Trp-Lys-Thr-Phe-GlyC3*-NH2 [ReO-3397]	IC50	89
ReO-MA-Gly-Gly-Gly-6-aminohexanoic acid-Dab*-Phe-Trp-(D)Trp-Lys-Thr-Phe-GlyC3*-NH2 [PTR 3401]	IC50	402

Recorded IC50 (substance ReO-MA-Dpr(Gly)-βAla-Dab*-Phe-Trp-(D)Trp-Lys-Thr-Phe-GlyC3*-NH2 [PTR 3399] ): 156

----------
- Target desc: rat SST-R4 (Rattus norvegicus)
- Sequence (P30937 whole entry): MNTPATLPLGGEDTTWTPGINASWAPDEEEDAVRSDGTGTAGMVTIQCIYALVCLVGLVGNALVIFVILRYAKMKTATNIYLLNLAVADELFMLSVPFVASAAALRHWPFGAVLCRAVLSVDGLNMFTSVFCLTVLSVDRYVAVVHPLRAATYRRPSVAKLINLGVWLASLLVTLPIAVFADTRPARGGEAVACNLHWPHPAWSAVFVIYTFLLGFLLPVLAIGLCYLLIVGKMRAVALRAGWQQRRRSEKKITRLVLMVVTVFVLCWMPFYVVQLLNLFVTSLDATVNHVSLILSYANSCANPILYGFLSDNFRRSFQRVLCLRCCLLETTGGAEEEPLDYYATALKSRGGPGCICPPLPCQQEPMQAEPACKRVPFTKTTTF
- Method notes: Subtype selectivity binding, rat SST-R4
- Details: # rows: determined in rat somatostatin receptors; read-out: Concentration (nM) of SST analogs to inhibit SRIF binding by 50%, SST-R 4
Measurement type: IC50 (nM)
Number only, in nM; omit the unit.

Sample answers from the record:
Substance	IC50 [nM]
ReO-MA-Dpr(Gly)-βAla-Dab*-Phe-Trp-(D)Trp-Lys-Thr-Phe-GlyC3*-NH2 [PTR 3399]	15
ReO-MA-Gly-Gly-Gly-6-aminohexanoic acid-Dab*-Phe-Trp-(D)Trp-Lys-Thr-Phe-GlyC3*-NH2 [PTR 3401]	20

Attention now turns to another entry.
Recorded IC50 (substance ReO-MA-Dpr(Gly)-Gly-Dab*-Phe-Trp-(D)Trp-Lys-Thr-Phe-GlyC3*-NH2 [ReO-3397] ): 3.3

----------
- Target desc: SST-R2 (Homo sapiens)
- Method notes: Inhibition of SRIF binding to SST-R2 (species not stated)
- Details: Quick Screen, 10 nM; SST-R2; read-out: Quick Screen SRIF Inhibited (%) 10 nM
Collected inhibition at 0.01 µM values appear next to each entry.
Number only, in %; omit the unit.

Sample answers from the record:
Molecule	Measurement type	Measured value
C[C@@H](O)[C@@H]1NC(=O)[C@H](CCCCN)NC(=O)[C@@H](Cc2c[nH]c3ccccc23)NC(=O)[C@H](Cc2c[nH]c3ccccc23)NC(=O)[C@H](Cc2ccccc2)NC(=O)[C@@H](NC(=O)CCNC(=O)CN(CCN(CCN(CC(=O)O)CC(=O)O)CC(=O)O)CC(=O)O)CCNC(=O)CCCN(CC(N)=O)C(=O)[C@H](Cc2ccccc2)NC1=O [PTR 3339]	inhibition at 0.01 µM	27
C[C@@H](O)[C@@H]1NC(=O)[C@H](CCCCN)NC(=O)[C@@H](Cc2c[nH]c3ccccc23)NC(=O)[C@H](Cc2c[nH]c3ccccc23)NC(=O)[C@H](Cc2ccccc2)NC(=O)[C@@H](NC(=O)CN(CCN(CCN(CC(=O)O)CC(=O)O)CC(=O)O)CC(=O)O)CCNC(=O)CCCN(CC(N)=O)C(=O)[C@H](Cc2ccccc2)NC1=O [PTR 3337]	inhibition at 0.01 µM	53
C[C@@H](O)[C@@H]1NC(=O)[C@H](CCCCN)NC(=O)[C@@H](Cc2c[nH]c3ccccc23)NC(=O)[C@H](Cc2c[nH]c3ccccc23)NC(=O)[C@H](Cc2ccccc2)NC(=O)[C@@H](NC(=O)CCCNC(=O)CN(CCN(CCN(CC(=O)O)CC(=O)O)CC(=O)O)CC(=O)O)CCNC(=O)CCCN(CC(N)=O)C(=O)[C@H](Cc2ccccc2)NC1=O [PTR 3341]	inhibition at 0.01 µM	35

Recorded inhibition at 0.01 µM (molecule C[C@@H](O)[C@@H]1NC(=O)[C@H](CCCCN)NC(=O)[C@@H](Cc2c[nH]c3ccccc23)NC(=O)[C@H](Cc2c[nH]c3ccccc23)NC(=O)[C@H](Cc2ccccc2)NC(=O)[C@@H](NC(=O)CNC(=O)CN(CCN(CCN(CC(=O)O)CC(=O)O)CC(=O)O)CC(=O)O)CCNC(=O)CCCN(CC(N)=O)C(=O)[C@H](Cc2ccccc2)NC1=O [PTR 3319] ): 65

----------
- Target desc: SST-R2 (Homo sapiens, UniProt P30874)
- Sequence (P30874 whole entry): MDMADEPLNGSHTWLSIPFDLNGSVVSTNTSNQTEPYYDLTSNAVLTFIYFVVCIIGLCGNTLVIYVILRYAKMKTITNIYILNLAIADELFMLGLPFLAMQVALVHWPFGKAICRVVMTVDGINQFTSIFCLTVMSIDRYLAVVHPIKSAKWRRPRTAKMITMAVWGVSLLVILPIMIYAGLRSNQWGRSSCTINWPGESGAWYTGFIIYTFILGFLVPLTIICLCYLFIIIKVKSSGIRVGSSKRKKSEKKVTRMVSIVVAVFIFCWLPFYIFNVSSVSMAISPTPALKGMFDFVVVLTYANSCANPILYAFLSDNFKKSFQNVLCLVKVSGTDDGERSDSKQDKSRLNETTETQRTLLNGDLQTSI
- Method notes: Inhibition of SRIF binding to SST-R2 (species not stated)
- Details: 10 nM; SST-R2
Collected SRIF Inhibited (%) 10 nM values appear next to each entry.
Number only, in %; omit the unit.

Sample answers from the record:
Substance	SRIF Inhibited (%) 10 nM
In-DTPA-GABA-Phe(C3**)-Cys*-Phe-(D)Trp-Lys-Thr-Cys*-Phe(N3 **)-NH2 [PTR 3351]	5
In-DTPA-5-aminopentanoic acid-Phe(C3**)-Cys*-Phe-(D)Trp-Lys-Thr-Cys*-Phe(N3**)-NH2 [PTR 3353]	14
In-DTPA-b-Ala-Phe(C3**)-Cys*-Phe-(D)Trp-Lys-Thr-Cys*-Phe(N3**)-NH2 [PTR 3349]	20

Recorded SRIF Inhibited (%) 10 nM (substance In-DTPA-Gly-Phe(C3**)-Cys*-Phe-(D)Trp-Lys-Thr-Cys*-Phe(N3**)-NH2 [PTR 3347] ): 38

Recorded SRIF Inhibited (%) 10 nM (substance In-DTPA-3-aminomethylbenzoic acid-Phe(C3**)-Cys*-Phe-(D)Trp-Lys-Thr-Cys*-Phe(N3**)-NH2 [PTR 3355] ): 8

----------
- Target desc: rat SST-R2 (Rattus norvegicus)
- Sequence (P30680 whole entry): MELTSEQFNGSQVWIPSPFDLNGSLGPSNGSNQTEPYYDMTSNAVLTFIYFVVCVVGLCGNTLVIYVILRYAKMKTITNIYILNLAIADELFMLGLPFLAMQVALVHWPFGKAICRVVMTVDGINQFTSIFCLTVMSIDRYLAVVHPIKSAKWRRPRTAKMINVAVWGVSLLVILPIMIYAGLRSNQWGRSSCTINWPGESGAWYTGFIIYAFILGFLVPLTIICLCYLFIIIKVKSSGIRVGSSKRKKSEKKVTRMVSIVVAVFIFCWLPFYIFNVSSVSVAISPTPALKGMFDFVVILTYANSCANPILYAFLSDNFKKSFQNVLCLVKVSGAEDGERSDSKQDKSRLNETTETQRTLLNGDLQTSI
- Method notes: Subtype selectivity binding, rat SST-R2
- Details: # rows: determined in rat somatostatin receptors; read-out: Concentration (nM) of SST analogs to inhibit SRIF binding by 50%, SST-R 2
Collected IC50 values appear next to each entry.
Number only, in nM; omit the unit.

Sample answers from the record:
Substance	Unit descriptor	IC50
ReO-MA-Dpr(Gly)-Gly-Dab*-Phe-Trp-(D)Trp-Lys-Thr-Phe-GlyC3*-NH2 [ReO-3397]	nM	0.25
ReO-MA-Gly-Gly-Gly-6-aminohexanoic acid-Dab*-Phe-Trp-(D)Trp-Lys-Thr-Phe-GlyC3*-NH2 [PTR 3401]	nM	0.44

Attention now turns to another entry.
Recorded IC50 (substance ReO-MA-Dpr(Gly)-βAla-Dab*-Phe-Trp-(D)Trp-Lys-Thr-Phe-GlyC3*-NH2 [PTR 3399] ): 1.6

----------
- Target desc: rat SST-R4 (Rattus norvegicus)
- Method notes: Subtype selectivity binding, rat SST-R4
- Details: rat SST-R4; read-out: Selectivity: IC50, nM, rat SST-R-4
Measurement type: IC50 (nM)
Number only, in nM; omit the unit.

Sample answers from the record:
Substance	IC50 / nM
ReO-MA-Dpr(Gly)-βAla-Dab*-Phe-Trp-(D)Trp-Lys-Thr-Phe-GlyC3*-NH2 [PTR 3399]	15
ReO-MA-Dpr(Gly)-Gly-Dab*-Phe-Trp-(D)Trp-Lys-Thr-Phe-GlyC3*-NH2 [ReO-3397]	3.3

Attention now turns to another entry.
Recorded IC50 (substance ReO-MA-Gly-Gly-Gly-6-aminohexanoic acid-Dab*-Phe-Trp-(D)Trp-Lys-Thr-Phe-GlyC3*-NH2 [PTR 3401] ): 20

----------
Collected inhibition at 0.001 µM values appear next to each entry.
- Target desc: SST-R2 (Homo sapiens, UniProt P30874)
- Method notes: Inhibition of SRIF binding to SST-R2 (species not stated)
- Details: read-out: IC50 Screen SRIF Inhibited (%) 1 nM
Number only, in %; omit the unit.

Sample answers from the record:
Compound	Unit descriptor	inhibition at 0.001 µM
C[C@@H](O)[C@@H]1NC(=O)[C@H](CCCCN)NC(=O)[C@@H](Cc2c[nH]c3ccccc23)NC(=O)[C@H](Cc2c[nH]c3ccccc23)NC(=O)[C@H](Cc2ccccc2)NC(=O)[C@@H](NC(=O)CCCNC(=O)CN(CCN(CCN(CC(=O)O)CC(=O)O)CC(=O)O)CC(=O)O)CCNC(=O)CCCN(CC(N)=O)C(=O)[C@H](Cc2ccccc2)NC1=O [PTR 3341]	%	12
C[C@@H](O)[C@@H]1NC(=O)[C@H](CCCCN)NC(=O)[C@@H](Cc2c[nH]c3ccccc23)NC(=O)[C@H](Cc2c[nH]c3ccccc23)NC(=O)[C@H](Cc2ccccc2)NC(=O)[C@@H](NC(=O)CN(CCN(CCN(CC(=O)O)CC(=O)O)CC(=O)O)CC(=O)O)CCNC(=O)CCCN(CC(N)=O)C(=O)[C@H](Cc2ccccc2)NC1=O [PTR 3337]	%	37

Attention now turns to another entry.
Recorded inhibition at 0.001 µM (compound C[C@@H](O)[C@@H]1NC(=O)[C@H](CCCCN)NC(=O)[C@@H](Cc2c[nH]c3ccccc23)NC(=O)[C@H](Cc2c[nH]c3ccccc23)NC(=O)[C@H](Cc2ccccc2)NC(=O)[C@@H](NC(=O)CNC(=O)CN(CCN(CCN(CC(=O)O)CC(=O)O)CC(=O)O)CC(=O)O)CCNC(=O)CCCN(CC(N)=O)C(=O)[C@H](Cc2ccccc2)NC1=O [PTR 3319] ): 30
